Target: Muscarinic acetylcholine receptor M5 (Homo sapiens) (UniProt P08912)
Sequence (whole entry): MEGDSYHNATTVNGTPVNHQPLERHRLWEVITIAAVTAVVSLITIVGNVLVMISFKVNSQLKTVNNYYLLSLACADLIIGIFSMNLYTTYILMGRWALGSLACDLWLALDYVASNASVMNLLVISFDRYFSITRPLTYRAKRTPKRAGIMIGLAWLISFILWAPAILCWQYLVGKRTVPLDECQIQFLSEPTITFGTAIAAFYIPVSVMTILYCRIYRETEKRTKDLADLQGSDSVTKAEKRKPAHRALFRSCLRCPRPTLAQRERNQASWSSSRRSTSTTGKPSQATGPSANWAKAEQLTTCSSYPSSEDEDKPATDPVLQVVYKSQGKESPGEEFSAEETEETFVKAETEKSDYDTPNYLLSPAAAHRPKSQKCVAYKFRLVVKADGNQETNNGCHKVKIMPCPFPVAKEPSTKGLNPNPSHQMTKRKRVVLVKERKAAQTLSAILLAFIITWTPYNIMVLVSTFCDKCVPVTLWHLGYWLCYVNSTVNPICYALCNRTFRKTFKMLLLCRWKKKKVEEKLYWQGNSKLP
Test: Agonist activity at M5-ACh receptor-FLASH/CFP expressed in HEK293 cells assessed as half-maximal activation time at 100 uM to 1 mM by FRET method
Type: functional, cell-based

COMPOUND: C[N+](C)(C)CC#CCN1CCCC1=O [OXOTREMORINE METHIODIDE]
TARGET OR TEST SYSTEM: Muscarinic acetylcholine receptor M5 (Homo sapiens) (UniProt P08912)
TIME (h): 2.89e-05
--
COMPOUND: C[C@@H]1O[C@H](C[N+](C)(C)C)C[C@H]1O [MUSCARINE CHLORIDE]
TARGET OR TEST SYSTEM: Muscarinic acetylcholine receptor M5 (Homo sapiens) (UniProt P08912)
TIME (h): 2e-05
--
COMPOUND: C[N+](C)(C)CCOC(N)=O
TARGET OR TEST SYSTEM: Muscarinic acetylcholine receptor M5 (Homo sapiens) (UniProt P08912)
TIME (h): 1.89e-05
--
COMPOUND: CC(=O)OCC[N+](C)(C)C
TARGET OR TEST SYSTEM: Muscarinic acetylcholine receptor M5 (Homo sapiens) (UniProt P08912)
TIME (h): 1.81e-05

###

EC50: recorded values
biological target: Muscarinic acetylcholine receptor M3 (Homo sapiens); experiment: Activation of M3-ACh receptor-FLASH/CFP expressed in HEK293 cells assessed as FRET signal
Sequence (P20309 whole entry): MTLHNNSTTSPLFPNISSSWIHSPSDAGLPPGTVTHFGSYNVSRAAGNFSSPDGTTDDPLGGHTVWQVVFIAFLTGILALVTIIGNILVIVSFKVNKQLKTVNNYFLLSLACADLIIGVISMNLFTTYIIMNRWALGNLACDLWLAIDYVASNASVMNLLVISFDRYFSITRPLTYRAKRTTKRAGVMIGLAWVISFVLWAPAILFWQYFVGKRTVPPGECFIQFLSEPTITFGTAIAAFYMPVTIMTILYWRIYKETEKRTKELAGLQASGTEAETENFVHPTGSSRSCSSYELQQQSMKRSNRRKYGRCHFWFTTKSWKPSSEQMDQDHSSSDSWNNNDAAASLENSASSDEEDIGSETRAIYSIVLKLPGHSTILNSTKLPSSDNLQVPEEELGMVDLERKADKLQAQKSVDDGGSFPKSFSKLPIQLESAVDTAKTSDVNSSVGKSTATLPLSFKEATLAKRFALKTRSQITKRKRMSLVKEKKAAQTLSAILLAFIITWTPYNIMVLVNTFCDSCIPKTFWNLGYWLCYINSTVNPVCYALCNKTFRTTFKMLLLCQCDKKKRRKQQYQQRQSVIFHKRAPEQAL

COMPOUND: C[N+](C)(C)CC#CCN1CCCC1=O [OXOTREMORINE METHIODIDE]
EC50 [nM]: 1800

COMPOUND: C[C@@H]1O[C@H](C[N+](C)(C)C)C[C@H]1O [MUSCARINE CHLORIDE]
EC50 [nM]: 1000
